I'd appreciate it if you could supply MIC values for the items below.
test system: Mycobacterium kansasii; assay: Antimycobacterial activity against Mycobacterium kansasii CNCTC My 235/80 after 14 days by microdilution method; assay type: functional; settings: CNCTC My 235/80, 336 h
Numbers only, in µM.

Example entries begin here.
>  <compound>
CCC(C)c1ccc(-n2c(=O)oc3cc(Cl)ccc3c2=O)cc1 (stereo not drawn)

>  <unitName>
µM

>  <MIC>
8

$$$$
>  <compound>
CC(C)(C)c1ccc(-n2c(=O)oc3ccc(F)cc3c2=O)cc1

>  <unitName>
µM

>  <MIC>
16

$$$$
>  <compound>
CCC(C)c1ccc(-n2c(=O)oc3ccc(Br)cc3c2=O)cc1 (stereo not drawn)

>  <unitName>
µM

>  <MIC>
8

$$$$
>  <compound>
CC(C)c1ccc(-n2c(=O)oc3ccc(Cl)cc3c2=O)cc1

>  <unitName>
µM

>  <MIC>
8

$$$$
>  <compound>
CC(C)(C)c1ccc(-n2c(=O)oc3ccc(F)cc3c2=S)cc1

>  <unitName>
µM

>  <MIC>
4

$$$$
>  <compound>
CCc1ccc(-n2c(=S)oc3ccc(Cl)cc3c2=S)cc1

>  <unitName>
µM

>  <MIC>
8

$$$$
>  <compound>
CC(C)(C)c1ccc(-n2c(=S)oc3ccc(F)cc3c2=S)cc1

>  <unitName>
µM

>  <MIC>
8

$$$$
>  <compound>
CCC(C)c1ccc(-n2c(=S)oc3ccc(Cl)cc3c2=S)cc1 (stereo not drawn)

>  <unitName>
µM

>  <MIC>
8

$$$$

Report MIC for every entry below.
1. CCC(C)c1ccc(-n2c(=O)oc3ccc(F)cc3c2=S)cc1 (stereo not drawn)
2. CC(C)(C)c1ccc(-n2c(=S)oc3cc(Cl)ccc3c2=S)cc1
3. CCC(C)c1ccc(-n2c(=O)oc3cc(Cl)ccc3c2=S)cc1 (stereo not drawn)
4. CCC(C)c1ccc(-n2c(=O)oc3cc(C)ccc3c2=S)cc1 (stereo not drawn)
5. CC(C)c1ccc(-n2c(=S)oc3ccc(Br)cc3c2=S)cc1
6. CCC(C)c1ccc(-n2c(=O)oc3ccc(Cl)cc3c2=S)cc1 (stereo not drawn)
7. CC(C)(C)c1ccc(-n2c(=O)oc3cc(Cl)ccc3c2=S)cc1

4
2
4
1
32
8
4

Report MIC for every entry below.
1. CC(C)c1ccc(-n2c(=O)oc3ccc(F)cc3c2=S)cc1
2. CCCCc1ccc(-n2c(=O)oc3ccc(Cl)cc3c2=O)cc1
3. CCc1ccc(-n2c(=S)oc3ccc(Br)cc3c2=S)cc1
4. Cc1ccc2c(=S)n(-c3ccc(C(C)(C)C)cc3)c(=O)oc2c1
5. CC(C)c1ccc(-n2c(=O)oc3ccc(F)cc3c2=O)cc1
6. CC(C)(C)c1ccc(-n2c(=O)oc3ccc(Cl)cc3c2=O)cc1

[2, 8, 8, 2, 8, 8]

Report MIC for every entry below.
1. CCc1ccc(-n2c(=O)oc3cc(Cl)ccc3c2=O)cc1
2. CCC(C)c1ccc(-n2c(=O)oc3ccc(Cl)cc3c2=O)cc1 (stereo not drawn)

16
16
